ASSAY TEXT: In vivo rat PK
APPLIED CONDITIONS: po, read-out: In vivo rat PK F %
METRIC NAME: bioavailability

INSERT INTO measurements (compound, metric_name, result_value) VALUES
  ('CN1CCN2c3ncccc3Cc3ccccc3C2C1 (centres unmarked) [Mirtazapine, reference compound]', 'bioavailability', '14%'),
  ('CN1C[C@@H]2c3ncccc3Oc3ccccc3[C@@H]2C1', 'bioavailability', '12%');
